Catalogue of binding signal values
- Target Desc: GST-Hu-p50 (Homo sapiens, UniProt P19838 7-356)
- Sequence (P19838 7-356): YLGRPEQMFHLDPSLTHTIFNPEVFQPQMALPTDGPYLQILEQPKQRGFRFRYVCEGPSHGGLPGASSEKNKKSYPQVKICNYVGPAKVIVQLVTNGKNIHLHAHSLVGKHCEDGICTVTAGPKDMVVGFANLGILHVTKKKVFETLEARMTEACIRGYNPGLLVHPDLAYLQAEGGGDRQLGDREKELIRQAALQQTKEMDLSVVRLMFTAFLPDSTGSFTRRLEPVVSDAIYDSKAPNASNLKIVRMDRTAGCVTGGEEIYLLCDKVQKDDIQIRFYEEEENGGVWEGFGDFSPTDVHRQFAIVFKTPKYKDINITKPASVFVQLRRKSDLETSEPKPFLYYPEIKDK
- Assay Protocol: protein-binding microarray (PBM); PBM: ~300 nM protein, 6 mM HEPES pH 7.8, 80 mM KCl, 0.5 mM EDTA, 0.5 mM EGTA, 6% glycerol, 35 ng/ul poly-dIdC, 1% milk, 1 h, room temperature; Ap Aiptasia and Nv Nematostella (sea anemones) / Co Capsaspora / Aq Amphimedon (sponge) / Dm Drosophila / Hu human; RHD is the Rel homology domain; high values mean tight binding
- Condition Info: dsDNA, one strand shown
// note: answer is a bare numeric in z-score

{"columns": ["Residue String", "binding signal, z-score"],
 "data": [
  ["CCGATTAACATCAGGGGAGACCCTGATGTTAATCGGGTCTTGATTCGCTTGACGCTGCTG", 3.38],
  ["CCGATTAACATCAGGGGGTAAGATGATGTTAATCGGGTCTTGATTCGCTTGACGCTGCTG", 3.07],
  ["CCGATTAACATCAAGGGGGGTAATGATGTTAATCGGGTCTTGATTCGCTTGACGCTGCTG", 3.62],
  ["CCGATTAACATCAATATAACCCCTGATGTTAATCGGGTCTTGATTCGCTTGACGCTGCTG", 2.73],
  ["CCGATTAACATCACCTTTTACATTGATGTTAATCGGGTCTTGATTCGCTTGACGCTGCTG", 1.53],
  ["CCGATTAACATCAAAGTCCCGGGTGATGTTAATCGGGTCTTGATTCGCTTGACGCTGCTG", 3.83]
]}

Note to self: binding signal of CCGATTAACATCACGAAACCCCCTGATGTTAATCGGGTCTTGATTCGCTTGACGCTGCTG with GST-Hu-p50 (Homo sapiens, UniProt P19838 7-356) was 7.11

Note to self: binding signal of CCGATTAACATCAGGGGGAAGACTGATGTTAATCGGGTCTTGATTCGCTTGACGCTGCTG with GST-Hu-p50 (Homo sapiens, UniProt P19838 7-356) was 6.29

Note to self: binding signal of CCGATTAACATCAAGTAATCCCCTGATGTTAATCGGGTCTTGATTCGCTTGACGCTGCTG with GST-Hu-p50 (Homo sapiens, UniProt P19838 7-356) was 5.93

Note to self: binding signal of CCGATTAACATCACTATTTCCCCTGATGTTAATCGGGTCTTGATTCGCTTGACGCTGCTG with GST-Hu-p50 (Homo sapiens, UniProt P19838 7-356) was 6.08

Note to self: binding signal of CCGATTAACATCAAAACATTCCCTGATGTTAATCGGGTCTTGATTCGCTTGACGCTGCTG with GST-Hu-p50 (Homo sapiens, UniProt P19838 7-356) was 3.88

Note to self: binding signal of CCGATTAACATCAGGGGCTTCACTGATGTTAATCGGGTCTTGATTCGCTTGACGCTGCTG with GST-Hu-p50 (Homo sapiens, UniProt P19838 7-356) was 4.01

Note to self: binding signal of CCGATTAACATCAGGGAAATCACTGATGTTAATCGGGTCTTGATTCGCTTGACGCTGCTG with GST-Hu-p50 (Homo sapiens, UniProt P19838 7-356) was 4.18

Note to self: binding signal of CCGATTAACATCACACAACCCCCTGATGTTAATCGGGTCTTGATTCGCTTGACGCTGCTG with GST-Hu-p50 (Homo sapiens, UniProt P19838 7-356) was 4.68

Note to self: binding signal of CCGATTAACATCACAATTCCCCCTGATGTTAATCGGGTCTTGATTCGCTTGACGCTGCTG with GST-Hu-p50 (Homo sapiens, UniProt P19838 7-356) was 7

Note to self: binding signal of CCGATTAACATCACGGGGGATTCTGATGTTAATCGGGTCTTGATTCGCTTGACGCTGCTG with GST-Hu-p50 (Homo sapiens, UniProt P19838 7-356) was 7.01
